Molecular target: Acetylcholinesterase (Rattus norvegicus)
Sequence (P37136 whole entry): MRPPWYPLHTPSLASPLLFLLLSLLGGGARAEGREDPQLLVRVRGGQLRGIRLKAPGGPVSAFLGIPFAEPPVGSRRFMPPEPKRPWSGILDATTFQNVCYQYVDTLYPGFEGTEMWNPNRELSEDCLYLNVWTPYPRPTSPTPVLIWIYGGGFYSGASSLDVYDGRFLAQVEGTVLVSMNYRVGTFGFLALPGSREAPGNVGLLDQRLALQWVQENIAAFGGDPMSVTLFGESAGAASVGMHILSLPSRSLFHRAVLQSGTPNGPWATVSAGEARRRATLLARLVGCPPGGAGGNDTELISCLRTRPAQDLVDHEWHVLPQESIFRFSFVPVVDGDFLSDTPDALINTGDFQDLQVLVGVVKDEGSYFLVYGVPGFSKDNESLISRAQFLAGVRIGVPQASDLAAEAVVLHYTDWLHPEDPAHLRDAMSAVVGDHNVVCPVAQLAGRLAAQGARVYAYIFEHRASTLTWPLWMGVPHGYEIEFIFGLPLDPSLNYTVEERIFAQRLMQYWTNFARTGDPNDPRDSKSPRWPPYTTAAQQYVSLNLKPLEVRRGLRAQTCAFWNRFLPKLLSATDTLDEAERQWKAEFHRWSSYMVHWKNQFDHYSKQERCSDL
Rule for this label: 1 means IC50 is less than 50 µM; 0 means IC50 is at least 50 µM.

Solved entries:
smilesStr | categoryLabel
FC(F)(F)c1cc(-c2ccccc2)nnc1NCCN1CCOCC1 | 0
Cc1cc(-c2ccc3c(c2)OCO3)nnc1NCCN1CCCCC1 | 1
c1ccc(-c2nnc(NCCN3CCCCC3)s2)cc1 | 0
OCc1cc(-c2ccccc2)nnc1NCCN1CCOCC1 | 0
c1ccc(-c2ncc(NCCN3CCCCC3)nn2)cc1 | 0
Cc1cc(-c2ccc(Cl)cc2)nnc1NCCN1CCCCC1 | 1
c1ccc(-c2cnc(NCCN3CCCCC3)nn2)cc1 | 0
c1ccc(-c2cnc(NCCN3CCCCC3)nc2)cc1 | 0
c1ccc(-c2ccc(NCCN3CCOCC3)nn2)cc1 | 0
Cc1cc(-c2ccccc2)nnc1NCCN1CCOCC1 | 0

Consider the compound "Cc1cc(-c2ccc(Cl)cc2)nnc1NCCN1CCOCC1" . Is its IC50 strictly less than 50 µM?
1

Consider the compound "c1ccc(-c2cc(-c3ccccc3)c(NCCN3CCOCC3)nn2)cc1" . Is its IC50 strictly less than 50 µM?
0
